ASSAY_SUMMARY: physchem
CONDITION: water (aqueous solution without NaCl)
Where a name gives a salt, the structure may show the parent alone.
REPORTED_METRIC: solubility thermodynamic

Return reported solubility thermodynamic; argument: COc1c(N2C[C@@H]3CCCN[C@@H]3C2)c(F)cc2c(=O)c(C(=O)O)cn(C3CC3)c12 [moxifloxacin HCl] ~24 mg/mL

====

ASSAY_SUMMARY: Solubility of moxifloxacin HCl in the presence of sodium chloride
Format: physicochemical
CONDITION: sodium chloride solution, 5 °C, saline or isotonic, thermodynamic from solid, NaCl 0.6 % (w/v)
Structures can show the parent of a compound that is named as a salt.
REPORTED_METRIC: solubility thermodynamic (µg/mL)
Answers are plain numbers, in µg/mL.

Looking for the measured solubility thermodynamic of COc1c(N2C[C@@H]3CCCN[C@@H]3C2)c(F)cc2c(=O)c(C(=O)O)cn(C3CC3)c12 [moxifloxacin HCl] , can you help? 2000
